# Method: xn = mol fraction of the nth substance listed
# Assay setup: 353.15 K; 100 kPa; Liquid; Concentric cylinders viscometry; x2 = 0.25
API: label(entry) gives TRUE if the entry's viscosity is strictly smaller than 20 mPa·s; on equality or larger values it gives FALSE.

Sample answers from the record:
CC(=O)[O-].CCCCn1cc[n+](C)c1 [1-butyl-3-methylimidazolium acetate] + CCCC[n+]1ccn(C)c1.O=S(=O)([N-]S(=O)(=O)C(F)(F)F)C(F)(F)F: TRUE
CCCCn1cc[n+](C)c1.N#C[S-] [1-butyl-3-methylimidazolium thiocyanate] + CCCC[n+]1ccn(C)c1.O=S(=O)([N-]S(=O)(=O)C(F)(F)F)C(F)(F)F: TRUE

stdin: Input CCCCn1cc[n+](C)c1.COP(=O)([O-])OC [1-butyl-3-methyl-1H-imidazolium dimethylphosphate] + CCCC[n+]1ccn(C)c1.O=S(=O)([N-]S(=O)(=O)C(F)(F)F)C(F)(F)F ; condition: viscosity strictly below 20 mPa·s. Does it hold?
stdout: FALSE

stdin: Dear reviewer, please state whether CCCCn1cc[n+](C)c1.O=S(=O)([O-])C(F)(F)F [1-butyl-3-methylimidazolium trifluoromethanesulfonate] + CCCC[n+]1ccn(C)c1.O=S(=O)([N-]S(=O)(=O)C(F)(F)F)C(F)(F)F has viscosity strictly beneath 20 mPa·s.
stdout: TRUE

stdin: Find out if reported viscosity for CCCCn1cc[n+](C)c1.F[P-](F)(F)(F)(F)F [1-butyl-3-methylimidazolium hexafluorophosphate] + CCCC[n+]1ccn(C)c1.O=S(=O)([N-]S(=O)(=O)C(F)(F)F)C(F)(F)F is less than 20 mPa·s
stdout: TRUE

---

Would you kindly list viscosity for each of these molecules?
# Assay setup: 358.15 K; 100 kPa; Liquid; Concentric cylinders viscometry
One number for each entry, in mPa·s.

Before answering, review these 4 worked examples.
CCCCn1cc[n+](C)c1.F[B-](F)(F)F [1-butyl-3-methylimidazolium tetrafluoroborate]: 12.59
CCCCn1cc[n+](C)c1.COP(=O)([O-])OC [1-butyl-3-methyl-1H-imidazolium dimethylphosphate]: 30.94
CC(=O)[O-].CCCCn1cc[n+](C)c1 [1-butyl-3-methylimidazolium acetate]: 17.35
CCCCn1cc[n+](C)c1.N#C[S-] [1-butyl-3-methylimidazolium thiocyanate]: 9.355

Now turn to the next molecule.
stdin: Bench note: what viscosity did CCCCn1cc[n+](C)c1.N#CN=C=[N-] [1-butyl-3-methylimidazolium dicyanamide] show?
stdout: 6.196

---

# Method: xn = mol fraction of the nth substance listed
# Assay setup: 338.15 K; 100 kPa; Liquid; Concentric cylinders viscometry; x2 = 0.25
The threshold is 30 mPa·s. Values of viscosity beneath it are tagged y; values meeting or exceeding it are tagged n.

As a guide, the following entries are already answered.
CCCCn1cc[n+](C)c1.O=S(=O)([O-])C(F)(F)F [1-butyl-3-methylimidazolium trifluoromethanesulfonate] + CCCC[n+]1ccn(C)c1.O=S(=O)([N-]S(=O)(=O)C(F)(F)F)C(F)(F)F: y
CCCCn1cc[n+](C)c1.N#C[S-] [1-butyl-3-methylimidazolium thiocyanate] + CCCC[n+]1ccn(C)c1.O=S(=O)([N-]S(=O)(=O)C(F)(F)F)C(F)(F)F: y
CC(=O)[O-].CCCCn1cc[n+](C)c1 [1-butyl-3-methylimidazolium acetate] + CCCC[n+]1ccn(C)c1.O=S(=O)([N-]S(=O)(=O)C(F)(F)F)C(F)(F)F: y
CCCCn1cc[n+](C)c1.COP(=O)([O-])OC [1-butyl-3-methyl-1H-imidazolium dimethylphosphate] + CCCC[n+]1ccn(C)c1.O=S(=O)([N-]S(=O)(=O)C(F)(F)F)C(F)(F)F: n

stdin: Does the reported viscosity of the following compound sit strictly below 30 mPa·s? CCCCn1cc[n+](C)c1.F[P-](F)(F)(F)(F)F [1-butyl-3-methylimidazolium hexafluorophosphate] + CCCC[n+]1ccn(C)c1.O=S(=O)([N-]S(=O)(=O)C(F)(F)F)C(F)(F)F
stdout: y
